Sourced from paper PMC5540273

- Test system: CDKL3
- Experimental Parameters: concentration: 1 μM, replicates: in singlicate; n = 1;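 further: KINOMEscan kinase panel screen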
Recorded Metric: %Inh (%)
Lab book: enter the figure in %, no units written.

>  <Molecule>
O=C(O)C(F)(F)F.O=c1[nH]ccc2nc(N[C@@H]3CCNC3)nc(Nc3ccc4c(c3)S(=O)(=O)CC4)c12 [GSK2181306]

>  <%Inh / %>
0

$$$$
>  <Molecule>
N#Cc1cnc2cc(-c3cnc(CNCCN4CCOCC4)s3)ccc2c1Nc1ccc(Oc2ccccc2)cc1 [GW664114]

>  <%Inh / %>
0

$$$$
>  <Molecule>
CCOc1nccc(-c2c(-c3ccc(F)cc3)ncn2C2CCNCC2)n1 [SB-249175]

>  <%Inh / %>
17

$$$$

Query string: Give its %Inh value. Item: O=C(Nc1n[nH]c2nc(-c3cccc(O)c3)ccc12)C1CC1 [SB-711805]
Result string: 0

Query string: Param item = NCCC(NC(=O)c1cc(Br)c(-c2ccnc3[nH]ccc23)s1)c1ccccc1.O=C(O)C(F)(F)F.O=C(O)C(F)(F)F (stereo not drawn) [GSK1307810] ; retrieve measured %Inh.
Result string: 0

Query string: Quick one: %Inh for CCn1c(-c2nonc2N)nc2c(-c3ccccc3)ncc(OCCCN)c21.O=C(O)C(F)(F)F.O=C(O)C(F)(F)F [GSK260205] ?
Result string: 0

====

- Test system: MST4
- Experimental Parameters: concentration: 1 μM, replicates: in singlicate; n = 1
Listing of recorded %Inh by entry.
Just the number in %, nothing appended.

>  <Compound>
Fc1cc(Cl)ccc1Nc1ccnc2cc(-c3ccc(CN4CCOCC4)o3)ccc12 [GW560109]

>  <Recorded Metric>
%Inh

>  <Observed>
0

$$$$
>  <Compound>
Cc1cccc(Nc2nc(NCCN)ncc2C(N)=O)c1 [GSK1292139]

>  <Recorded Metric>
%Inh

>  <Observed>
23

$$$$
>  <Compound>
COC(=O)Nc1nc2cc(Oc3ccc(NC(=O)Nc4cccc(SC)c4)cc3)ccc2[nH]1.Cl [GW697999]

>  <Recorded Metric>
%Inh

>  <Observed>
0

$$$$
>  <Compound>
CC(C)c1nc(-c2cccc(NS(=O)(=O)c3c(F)cccc3F)c2)c(-c2ccnc(Nc3ccc(N4CCOCC4)nc3)n2)s1.Cl [GSK1723980]

>  <Recorded Metric>
%Inh

>  <Observed>
16

$$$$
>  <Compound>
N#Cc1cnc2cc(-c3cnc(CNCCN4CCOCC4)s3)ccc2c1Nc1ccc(Oc2ccccc2)cc1 [GW664114]

>  <Recorded Metric>
%Inh

>  <Observed>
18

$$$$
>  <Compound>
CNc1nccc(-c2ccc3c(N)n[nH]c3c2)n1 [GSK2206003]

>  <Recorded Metric>
%Inh

>  <Observed>
0

$$$$

Query string: Record CC(C)NCC(Cc1ccccc1)NC(=O)c1cc(Br)c(-c2ccnc3[nH]ccc23)s1.Cl.Cl (stereo not shown) [GSK1383281] : what is its %Inh with MST4?
Result string: 26

Query string: Enter reported %Inh observed with MST4 for O=C1NC(=O)C(c2ccccc2Cl)=C1Nc1cccc(Cl)c1 [SB-342409]
Result string: 0

Query string: API: value(readout= %Inh, system= MST4, query= Nc1cccc(-c2ccc3c(N)n[nH]c3c2)c1 [GSK2193613] )
Result string: 0

Query string: Observed %Inh on MST4 for Cc1ccc(NC(=O)c2ccnc(N3CCCCC3)c2)cc1-c1ccc(C(=O)NCC2CC2)cc1 [GW775610] , please.
Result string: 0

Query string: # query: %Inh | item COc1cccc(NC(=O)NCCNc2ccnc(Nc3ccc(F)cc3)n2)c1 [GSK1379879] | system: MST4
Result string: 0

Query string: Request - read-out %Inh | tested on MST4 | compound CC(C)(C)c1ccc(C(=O)Nc2cn3cc(-n4ccnc4)ccc3n2)cc1
Result string: 0

Query string: What measured %Inh is associated with CCn1c(-c2nonc2N)nc2c(-c3ccccc3)ncc(OCCCN)c21.O=C(O)C(F)(F)F.O=C(O)C(F)(F)F [GSK260205] on MST4?
Result string: 71
